# Condition Details: in acetic acid, 323.15 K
Quantity Kind: solubility (mole fraction)

Smiles Notation	Recorded Number
[NH3+]O.[NH3+]O.[O-]n1nnnc1-c1nnnn1[O-]	0.000171

====

# Condition Details: in acetic acid, 318.15 K
Quantity Kind: solubility (mole fraction)

Smiles Notation	Result
[NH3+]O.[NH3+]O.[O-]n1nnnc1-c1nnnn1[O-]	0.000146

====

# Condition Details: in formic acid, 328.15 K
Quantity Kind: solubility (mole fraction)

Smiles Notation	Recorded Number
[NH3+]O.[NH3+]O.[O-]n1nnnc1-c1nnnn1[O-]	0.00283

====

# Condition Details: in water, 328.15 K

Smiles Notation	solubility (mole fraction)
[NH3+]O.[NH3+]O.[O-]n1nnnc1-c1nnnn1[O-]	0.000385
